Test system: CAKI-1
Experiment: NCI tumour cell line growth inhibition, 48 h
Active and inactive are the calls of the source. No stated cut-off is given here; in the data, active = GI50 up to about 1.1 µM and inactive = higher.

{"columns": ["MOLECULE", "GI50"],
 "data": [
  ["O=C1N=C2Sc3ccc4ccccc4c3N2C1=O", "24.1 µM (inactive)"],
  ["O=C(O)CC(Nc1ccccc1)C(=O)O (stereo not drawn)", "> 100 µM (inactive)"],
  ["CCC1C(NC(=O)OC)C(=O)N1[C@@H](C)c1ccccc1 (stereo partly drawn)", "> 100 µM (inactive)"],
  ["COC(=O)C(CCCCN)NC(=O)C(CCCCN)NC(C)=O.Cc1ccc(C(=O)Nc2ccc(S(=O)(=O)O)c3cc(S(=O)(=O)O)cc(S(=O)(=O)O)c23)cc1NC(=O)c1cccc(NC(=O)Nc2cccc(C(=O)Nc3cc(C(=O)Nc4ccc(S(=O)(=O)O)c5cc(S(=O)(=O)O)cc(S(=O)(=O)O)c45)ccc3C)c2)c1", "> 50 µM (inactive)"],
  ["C[C@H](O)C1CC(Cn2nnc3c(N)ncnc32)C1(C)C (stereo partly drawn)", "> 100 µM (inactive)"],
  ["NNc1nc2ccccc2c(=O)n1NC(=O)C(=O)Nc1cccc(C(F)(F)F)c1", "> 100 µM (inactive)"],
  ["COc1c(OC(C)C)c(OC(C)C)c2oc(=O)n3c2c1C(c1ccccc1-n1c(C)ccc1C)C=C3 (stereo not drawn)", "> 100 µM (inactive)"],
  ["N#Cc1c(O)c(/N=N/c2ccc(Cl)cc2)c(=O)n2c1[nH]c1ccccc12", "78.3 µM (inactive)"]
]}

----------
Test system: SK-OV-3
Test: NCI tumour cell line growth inhibition, 48 h
The source made the active and inactive calls. Cut-off read from the data, not from the text of the source: active = GI50 up to about 1.1 µM and inactive = higher.
// values below are reported GI50

{"columns": ["COMPOUND", "GI50"],
 "data": [
  ["O=c1c2cccnc2[nH]c2ccc3[nH]ncc3c12", "> 10 µM (inactive)"],
  ["O=C(C(O)c1cn(Cc2ccccc2)c2ccccc12)N1CCCCC1 (stereo not drawn)", "72.8 µM (inactive)"],
  ["COc1ccc(/C=C/C(=O)c2ccc(Br)cc2)cc1", "> 100 µM (inactive)"],
  ["Nc1nc(=O)c2cc(NCc3ccc(C(=O)NC(CCC(=O)O)C(=O)O)cc3)ccc2[nH]1 (stereo not drawn)", "> 100 µM (inactive)"],
  ["CN1CCc2ccccc2C1Cc1ccccc1NC(=O)c1sc2ccccc2c1Cl (stereo not drawn)", "> 100 µM (inactive)"],
  ["CN(C)C(=O)C(F)(F)C(c1ccccc1)C1C(=O)N(C)C(=O)N(C)C1=O (stereo not drawn)", "> 100 µM (inactive)"],
  ["O=Cc1c2c(cc3c1CC1(C3)Cc3cc4c(c(C=O)c3C1)CCCC4)CCCC2", "> 31.6 µM (inactive)"],
  ["COC(=O)C1CC/C(=N/C2c3ccccc3-c3ccccc32)N1 (stereo not drawn)", "> 100 µM (inactive)"],
  ["Cc1c(C(=O)OCc2ccccc2)[n+]([O-])c2ccccc2[n+]1[O-]", "28 µM (inactive)"],
  ["N#CCCN(CCC#N)c1ccc(/C=C(/NC(=O)c2cc([N+](=O)[O-])ccc2Cl)C(=O)N=[N+]=[N-])cc1", "> 100 µM (inactive)"],
  ["CCC(=O)Oc1c2ccsc2c(OC(=O)CC)c2ccsc12", "6.62 µM (inactive)"],
  ["COc1ccccc1NC(=O)C1=C(C)NC(C)=C(C(=O)Nc2ccccc2OC)C1c1ccc(N(C)C)cc1", "38.7 µM (inactive)"],
  ["Cc1nc2ccccc2n1Cc1ccc(NC(=S)NC2CCCCC2)cc1", "> 92.7 µM (inactive)"],
  ["[N-]=[N+]=NC1=C(C(=O)c2ccccc2)C(=O)c2cccc3cccc1c23", "26.6 µM (inactive)"],
  ["COc1cc(/C=N\\NC(=O)C[N+](C)(C)C)cc(OC)c1OC", "> 10 µM (inactive)"],
  ["c1ccc(CN(Cn2cccn2)Cn2cccn2)nc1", "> 100 µM (inactive)"],
  ["COc1cc2c(cc1OC)C(CC(=O)NN=C(C)C)NCC2 (stereo not drawn)", "> 100 µM (inactive)"],
  ["NC1=CN2c3ccccc3N(CC(=O)O)C2C=C1 (stereo not drawn)", "> 100 µM (inactive)"],
  ["CNC(N)NC", "> 100 µM (inactive)"],
  ["CCN(CC)C(=O)CCNC(C)Cc1c[nH]c2ccccc12 (stereo not drawn)", "> 100 µM (inactive)"],
  ["Clc1ccc2c(NCCNC3CCCCC3)ccnc2c1", "13.9 µM (inactive)"],
  ["CC(=O)Oc1cc2c(cc1OC(C)=O)OCC(c1ccc(C)cc1)C2 (stereo not drawn)", "53.7 µM (inactive)"],
  ["NC1=NCCN1CC(=O)O", "> 1000 µM (inactive)"]
]}
